- tgt: MRP4 (Homo sapiens, UniProt O15439)
- Construct: infected with a baculovirus construct containing the full-length cDNA encoding MRP4
- Sequence (O15439 whole entry): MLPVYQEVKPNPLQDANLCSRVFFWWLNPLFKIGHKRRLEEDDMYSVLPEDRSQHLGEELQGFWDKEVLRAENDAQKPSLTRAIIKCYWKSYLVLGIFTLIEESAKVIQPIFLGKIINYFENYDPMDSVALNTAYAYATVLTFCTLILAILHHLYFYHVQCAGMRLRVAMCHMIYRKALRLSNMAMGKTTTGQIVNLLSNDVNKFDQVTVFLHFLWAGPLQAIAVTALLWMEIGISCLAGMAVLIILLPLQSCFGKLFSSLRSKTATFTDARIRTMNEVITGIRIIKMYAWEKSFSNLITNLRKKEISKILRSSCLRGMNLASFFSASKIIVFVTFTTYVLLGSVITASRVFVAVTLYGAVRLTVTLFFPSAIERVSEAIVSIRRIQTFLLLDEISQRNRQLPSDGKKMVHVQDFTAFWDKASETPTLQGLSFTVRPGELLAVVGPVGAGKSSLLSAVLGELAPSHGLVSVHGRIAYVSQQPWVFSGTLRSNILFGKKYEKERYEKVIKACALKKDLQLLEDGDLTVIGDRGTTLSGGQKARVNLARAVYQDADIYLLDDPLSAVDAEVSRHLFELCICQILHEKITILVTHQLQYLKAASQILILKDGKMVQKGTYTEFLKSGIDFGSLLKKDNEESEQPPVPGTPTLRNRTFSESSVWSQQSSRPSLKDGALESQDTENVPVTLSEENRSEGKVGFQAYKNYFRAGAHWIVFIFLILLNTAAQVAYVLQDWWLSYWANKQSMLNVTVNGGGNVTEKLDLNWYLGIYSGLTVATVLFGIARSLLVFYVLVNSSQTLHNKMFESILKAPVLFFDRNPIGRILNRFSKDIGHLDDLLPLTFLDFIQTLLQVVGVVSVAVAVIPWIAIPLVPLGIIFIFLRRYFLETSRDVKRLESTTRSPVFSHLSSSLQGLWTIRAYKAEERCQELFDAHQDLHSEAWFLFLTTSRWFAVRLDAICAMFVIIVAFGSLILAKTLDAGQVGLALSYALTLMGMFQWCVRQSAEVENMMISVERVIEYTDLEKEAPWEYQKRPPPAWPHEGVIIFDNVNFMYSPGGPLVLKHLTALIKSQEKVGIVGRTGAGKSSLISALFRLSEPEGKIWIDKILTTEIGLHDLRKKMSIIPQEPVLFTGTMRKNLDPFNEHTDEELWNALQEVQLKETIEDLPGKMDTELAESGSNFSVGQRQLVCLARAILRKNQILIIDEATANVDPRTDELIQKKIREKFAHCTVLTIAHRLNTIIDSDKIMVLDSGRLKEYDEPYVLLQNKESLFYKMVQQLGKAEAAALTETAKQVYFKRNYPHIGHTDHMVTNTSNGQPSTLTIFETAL
- assay-notes: SPA assay of MRP4 transport activity (3H-folic acid uptake into membrane vesicles)
- condition: inhibition of MRP4 transport of 3H-folic acid into membrane vesicles from baculovirus-infected insect cells; Protein A SPA beads, anti-MRP4 rabbit antiserum
reported-metric: IC50 (µM)
The response must be a number in µM with no trailing unit.

OCCN(CCO)c1nc(N2CCCCC2)c2nc(N(CCO)CCO)nc(N3CCCCC3)c2n1 tested on MRP4 (Homo sapiens, UniProt O15439) gave IC50: 35
